# targetOrSystem: Caspase-3 (Homo sapiens)
# testDescription: Inhibition of recombinant caspase-3 (unknown origin) using Ac-DEVD-AFC as substrate measured after 40 mins by fluorescence assay
# Lookup of reported pIC50 keyed by entry
// pIC50: -log10(molar conc.)

O=C1CN(C(=O)CCl)c2ccccc2N1 4.54

Now for another entry.
Give the value of pIC50 reported for the following: `O=C(CCl)Nc1ccc(NC(=O)c2cccs2)cc1`
5.02

----------
# targetOrSystem: Caspase-3 (Homo sapiens, UniProt P42574)
# Sequence (P42574 29-175 limits assumed): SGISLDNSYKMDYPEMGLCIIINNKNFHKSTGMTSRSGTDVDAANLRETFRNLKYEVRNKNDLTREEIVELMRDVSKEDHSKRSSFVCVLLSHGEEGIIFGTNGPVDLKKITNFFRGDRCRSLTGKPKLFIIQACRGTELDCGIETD
# Sequence (P42574 176-277 limits assumed): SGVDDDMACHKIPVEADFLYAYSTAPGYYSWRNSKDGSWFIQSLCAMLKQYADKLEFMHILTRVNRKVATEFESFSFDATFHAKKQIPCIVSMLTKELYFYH
# testDescription: Inhibition of recombinant caspase-3 (unknown origin) at 125 uM using Ac-DEVD-AFC as substrate measured after 40 mins by fluorescence assay relative to control
# experimentalParameters: recombinant caspase-3, probe Ac-DEVD-AFC
measurementName: inhibition at 40 min, 125 µM (%)
Give the value in % but do not write % after it.

O=C(CCl)Nc1ccc(NC(=O)c2cccs2)cc1 30
CN1C(=O)CN(C(=O)CCl)c2ccc(Br)cc21 14
Cc1nc(-c2ccc3c(c2)CCN3C(=O)CCl)cs1 16
O=C1CN(C(=O)CCl)c2ccccc2N1 90

Now for another entry.
Quote inhibition at 40 min, 125 µM with test system Caspase-3 (Homo sapiens, UniProt P42574) for `COc1ccc2nc(NC(=O)CCl)sc2c1`
21.7

----------
# targetOrSystem: Caspase-2 (Homo sapiens) (UniProt P42575)
# Sequence (P42575 170-325 limits assumed): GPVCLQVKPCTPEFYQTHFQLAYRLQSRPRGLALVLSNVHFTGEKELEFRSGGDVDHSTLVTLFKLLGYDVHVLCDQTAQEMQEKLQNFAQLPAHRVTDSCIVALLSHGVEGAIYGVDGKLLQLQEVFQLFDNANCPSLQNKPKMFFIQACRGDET
# Sequence (P42575 334-452 limits assumed): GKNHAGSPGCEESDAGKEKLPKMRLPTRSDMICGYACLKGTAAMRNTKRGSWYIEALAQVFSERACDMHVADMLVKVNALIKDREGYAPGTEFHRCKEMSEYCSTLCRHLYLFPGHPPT
# testDescription: Inhibition of recombinant caspase-2 (unknown origin) at 12.5 uM using Z-VDVAD-AFC as substrate measured after 40 mins by fluorescence assay relative to control
Classify by measured inhibition: 1 if it is equal to or exceeds 90%, 0 if it is smaller.

Before answering, review these 2 worked examples.
CN1C(=O)CN(C(=O)CCl)c2ccc(Br)cc21 0
COc1ccc2nc(NC(=O)CCl)sc2c1 0

Turning now to a further compound:
Decide: inhibition of `O=C(CCl)Nc1ccc(NC(=O)c2cccs2)cc1` >= 90%?
1

----------
# Species: Homo sapiens
# testDescription: Selectivity ratio of IC50 for recombinant caspase-3 (unknown origin) to recombinant caspase-2 (unknown origin)
# Lookup of reported Ratio IC50 keyed by entry

COc1ccc2nc(NC(=O)CCl)sc2c1 > 12
O=C1CN(C(=O)CCl)c2ccccc2N1 27
O=C(CCl)Nc1ccc(NC(=O)c2cccs2)cc1 7

Give the value of Ratio IC50 reported for the following: `CN1C(=O)CN(C(=O)CCl)c2ccc(Br)cc21`
> 16

----------
# Lookup of reported inhibition keyed by entry
# targetOrSystem: Caspase-2 (Homo sapiens)
# testDescription: Inhibition of recombinant caspase-2 (unknown origin) at 6.25 uM using Z-VDVAD-AFC as substrate measured after 40 mins by fluorescence assay relative to control
Give the value in % but do not write % after it.

For orientation, consider the following solved cases.
O=C1CN(C(=O)CCl)c2ccccc2N1 86
Cc1nc(-c2ccc3c(c2)CCN3C(=O)CCl)cs1 79

Give the value of inhibition reported for the following: `CN1C(=O)CN(C(=O)CCl)c2ccc(Br)cc21`
62

Give the value of inhibition reported for the following: `O=C(CCl)Nc1ccc(NC(=O)c2cccs2)cc1`
92

----------
# targetOrSystem: Caspase-2 (Homo sapiens, UniProt P42575)
# Sequence (P42575 170-325 limits assumed): as the sequence (P42575 170-325 limits assumed) above
# Sequence (P42575 334-452 limits assumed): as the sequence (P42575 334-452 limits assumed) above
# testDescription: Inhibition of recombinant caspase-2 (unknown origin) using Z-VDVAD-AFC as substrate measured after 40 mins by fluorescence assay
measurementName: pIC50
// pIC50: -log10(molar conc.)

For orientation, consider the following solved cases.
COc1ccc2nc(NC(=O)CCl)sc2c1 5.28
CN1C(=O)CN(C(=O)CCl)c2ccc(Br)cc21 5.50

Now for another entry.
Give the value of pIC50 reported for the following: `O=C(CCl)Nc1ccc(NC(=O)c2cccs2)cc1`
5.89

----------
# targetOrSystem: Caspase-3 (Homo sapiens)
# testDescription: Inhibition of recombinant caspase-3 (unknown origin) at 62.5 uM using Ac-DEVD-AFC as substrate measured after 40 mins by fluorescence assay relative to control
# experimentalParameters: recombinant caspase-3, probe Ac-DEVD-AFC
# Lookup of reported inhibition at 40 min, 62.5 µM keyed by entry
Give the value in % but do not write % after it.

For orientation, consider the following solved cases.
O=C1CN(C(=O)CCl)c2ccccc2N1 59
CN1C(=O)CN(C(=O)CCl)c2ccc(Br)cc21 0
O=C(CCl)Nc1ccc(NC(=O)c2cccs2)cc1 24

Now for another entry.
Give the value of inhibition at 40 min, 62.5 µM reported for the following: `Cc1nc(-c2ccc3c(c2)CCN3C(=O)CCl)cs1`
10
